conditions: [M+H]+; instrument: DT; single field, calibrated with Agilent tune mix (Agilent)
Think of 200 Å² as a floor: if collision cross section (N2) stands on it or above, it is Fulfilled; beneath it, Not fulfilled.

INSERT INTO measurements (molecule, assigned_class) VALUES
  ('Cn1cnc(CCN)c1 [1-Methylhistamine]', 'Not fulfilled'),
  ('N[C@@H](CSS(=O)(=O)O)C(=O)O [Cysteine-S-sulfate]', 'Not fulfilled');

Could you now look at the following molecule, please?
Asked: Decide: collision cross section (N2) of C[C@H](O)C(=O)C1=Nc2c([nH]c(N)nc2=O)NC1 [Sepiapterin] >= 200 Å²?
Given back: Not fulfilled

---

settings: [M+NH4]+; instrument: DT; single field
The following molecules are listed with their measured collision cross section (N2) values.

Below, 2 molecules whose answers are already recorded.
INSERT INTO results (molecule, observed_value) VALUES
  ('CCCCCCCCCCCCCCCCCCCC(=O)O[C@@H](CO)COC(=O)CCCCCCCCCCC [DG(32:0)]', '255.58 Å²'),
  ('CCCCC/C=C\C/C=C\CCCCCCCCCC(=O)OC[C@@H](COC(=O)CCCCCCC/C=C\C/C=C\CCCCC)OC(=O)CCCCCCC/C=C\CCCCCCCCC [TG(57:5)]', '334.96 Å²');

Okay, next one:
Input CC/C=C\C/C=C\C/C=C\C/C=C\C/C=C\C/C=C\CCC(=O)OC[C@@H](COC(=O)CCCCCCCCCCC)OC(=O)CCCCCCC/C=C\CCCCCCCC [TG(52:7)] . Output collision cross section (N2): 313.4 Å²

---

Reported collision cross section (N2) values follow for various compounds
settings: [M+Na]+; instrument: TW; calibrated with phosphatidylcholines (ESI+) and phosphatidylethanolamines (ESI-), doubly charged cardiolipins calibrated with poly-DL-…
# unit: Å² | format: bare number

Some entries whose results are on file:
INSERT INTO results (compound, observed_value) VALUES
  ('CCCCCC/C=C\CCCCCCCC(=O)OCC(COP(=O)(O)OCC(O)CO)OC(=O)CCCCCCCCCCCCCCC (centres undefined) [PG(32:1)]', 275.15),
  ('CCCCCCCCCCCCCCCC(=O)OCC(COP(=O)(O)OCC(O)CO)OC(=O)CCCCCCCCCCCCC (centres undefined) [PG(30:0)]', 272.75),
  ('CCCCCC/C=C\CCCCCCCC(=O)OCC(COP(=O)(O)OCC(O)CO)OC(=O)CCCCCCCC1CC1CCCCCCCC (centres undefined) [PG(35:2)]', 281.82);

Reported collision cross section (N2) of CCCCCC/C=C/CCCCCCCC(=O)OC[C@@H](O)COP(=O)([O-])OCC[NH3+] [LPE(16:1/0:0)] : 211.09

get_value(item= CCCCCCCCC1CC1CCCCCCCC(=O)O[C@H](CO)COP(=O)([O-])OCC[NH3+] (some centres undefined) [LPE(0:0/19:1)] , readout=collision cross section (N2)) returns 226.07

Reported collision cross section (N2) of CCCCCCCCCCCCCCCC(=O)OCC(COP(=O)(O)OCC(O)CO)OC(=O)CCCCCCCCCCCCCCC (centres undefined) [PG(32:0)] : 278.8

---

settings: [M+H]+; instrument: DT; stepped-field
Here, each record is paired with measured collision cross section (N2) data.
Number in Å², nothing else.

Some entries whose results are on file:
INSERT INTO results (smi, value_type, result_unit, observed_value) VALUES
  ('CCCCCCCCCCCCC=CC[C@@H](O)[C@H](COP(=O)([O-])OCC[N+](C)(C)C)NC(=O)CC=CCCCCCCCCCCCCCCCCCCC', 'collision cross section (N2)', 'Å²', 298.91),
  ('CCCCCCCCCCCCCCCCCCCCCC(=O)N[C@@H](COP(=O)([O-])OCC[N+](C)(C)C)[C@H](O)CCCCCCCCCCCCCCC', 'collision cross section (N2)', 'Å²', 299.61);

Let's switch to this molecule now.
Reported collision cross section (N2) for CCCCCCCCCCCCCCCCCCCC(=O)OC[C@H](COP(=O)([O-])OCC[N+](C)(C)C)OC(=O)CCCCCCCCCCC was 278.4

---

Here the recorded collision cross section (N2) is given for each entry.
settings: [M+H]+; instrument: TW
Quick reminder: number only, in Å², skip the unit.

INSERT INTO measurements (compound, result_unit, observed_value) VALUES
  ('CCCCCCCCSC(=O)Oc1cc(Cl)nnc1-c1ccccc1 [Pyridate]', 'Å²', 199.9);

Record summary for C[C@H]1c2cccc(O)c2C(=O)C2=C(O)[C@]3(O)C(=O)C(C(N)=O)=C(O)[C@@H](N(C)C)[C@@H]3[C@@H](O)[C@@H]21 : reported collision cross section (N2) = 197.4

Notebook: Nc1c(Cl)cc(C(O)CNC2CCC(O)CC2)cc1Cl (centres undefined) , collision cross section (N2) read as 164.7

Record CCNc1nc(Cl)nc(NC(C)(C)C)n1 , field collision cross section (N2): 153.48

response.value for CC#Cc1cc(C)nc(Nc2ccccc2)n1 (field: collision cross section (N2)) = 152.07

Short answer for CCCCC(O)(Cn1cncn1)c1ccc(Cl)cc1Cl (centres undefined) : collision cross section (N2) was 171.26

Lab note: O=C(O)c1cccnc1Nc1cccc(C(F)(F)F)c1 gave collision cross section (N2) of 156.8

Consider CC(C)(C)C(O)(CCc1ccc(Cl)cc1)Cn1cncn1 (centres undefined) . Its measured collision cross section (N2) is 167.37

The value of collision cross section (N2) measured for the compound COc1ccc2cc([C@H](C)C(=O)O)ccc2c1 turned out to be 147.1

---

conditions: [M+HCOO]-; instrument: DT; stepped-field
Reported collision cross section (N2) is given for each of the following compounds.
Field: numeric (Å²). Do not append units.

// recorded collision cross section (N2) for CCCCC/C=C\C=C/CCCCCCCCC(=O)O[C@H](COC(=O)CCCCCCCCCCCCCCCCC)COP(=O)([O-])OCC[N+](C)(C)C [PC(36:02)] : 295.45

---

details: [M+Na]+; instrument: TW; calibrated with phosphatidylcholines (ESI+) and phosphatidylethanolamines (ESI-)
Here, each record is paired with measured collision cross section (N2) data.
State just the number; it will be interpreted in Å².

INSERT INTO results (compound, result_unit, observed_value) VALUES
  ('CCCCC/C=C\C/C=C\C/C=C\C/C=C\CCCCCC(=O)OC[C@H](COP(=O)(O)OC[C@@H](O)CO)OC(=O)CCCCCCC/C=C\CCCCCCCC', 'Å²', 292.7),
  ('CC/C=C\C/C=C\C/C=C\C/C=C\C/C=C\C/C=C\CCC(=O)O[C@H](CO/C=C\CCCCCC/C=C\CCCCCCCC)COP(=O)(O)OCCN', 'Å²', 281),
  ('CC/C=C\C/C=C\C/C=C\C/C=C\CCCCC(=O)OC[C@H](COP(=O)(O)O[C@H]1C(O)C(O)C(O)[C@@H](O)C1O)OC(=O)CCCCCCCCCCCCCCCCCCC (some centres not stated)', 'Å²', 297.4),
  ('CCCCC/C=C\C/C=C\CCCCCCCCCC(=O)O[C@H](CO/C=C\CCCCCCCCCCCCCCCCCC)COP(=O)(O)OCCN', 'Å²', 291.1),
  ('CCCCC/C=C\C/C=C\C/C=C\C/C=C\CCCC(=O)O[C@H](COC(=O)CCCCCC/C=C\C/C=C\C/C=C\CCCCC)COP(=O)(O)O[C@H]1C(O)C(O)C(O)[C@@H](O)C1O (some centres not stated)', 'Å²', 298.8);

Just so you know, measured collision cross section (N2) for CC/C=C\C/C=C\C/C=C\C/C=C\C/C=C\C/C=C\CCC(=O)O[C@H](COC(=O)CCCCCCCCCCCCCCC)COP(=O)(O)OC[C@@H](O)CO came out at 284

The compound listed as CCCCCC/C=C\CCCCCCCCCC(=O)O[C@H](CO)COP(=O)(O)OCCN has a reported collision cross section (N2) of 219

The reported value for CCCCCCCCCCCCCC/C=C\OC[C@@H](O)COP(=O)([O-])OCC[NH3+] in terms of collision cross section (N2) is 214.7

---

conditions: [M+Na]+; instrument: DT; stepped-field
Listed compounds paired with reported collision cross section (N2)
Kindly answer with a numeric value in Å², unit omitted.

Looking up CCCCCCCCCCCCCCCCCCCCCC(=O)N[C@@H](COP(=O)([O-])OCC[N+](C)(C)C)[C@H](O)CCCCCCCCCCCCCCC [SM(40:0)] , I found its collision cross section (N2) recorded as 305.7

Lab note: CCCCCCCCCCCCCCCCCCCCCC(=O)N[C@@H](CO[C@@H]1O[C@H](CO)[C@@H](O)C(O)C1O)[C@H](O)CCCCCCCCCCCCCCC (some centres not stated) [GlcCer(40:0)] gave collision cross section (N2) of 302.3

// field: collision cross section (N2); key: CCC=CCC=CCC=CCC=CCC=CCC=CCC(=O)OC[C@H](COP(=O)(O)OCC[N+](C)(C)C)OC(=O)CC=CCC=CCC=CCC=CCC=CCC=CCC [PC(42:12)] ; value = 303.9

Field collision cross section (N2) (entry OC[C@H]1O[C@H](O[C@H]2[C@H](O)[C@@H](O)[C@@H](O[C@H]3[C@H](O)[C@@H](O)[C@@H](O)O[C@@H]3CO)O[C@@H]2CO)[C@H](O)[C@@H](O)[C@@H]1O [Maltotriose] ) reads 212.8

The compound listed as CCCCC/C=C\C/C=C\CCCCCCCCCCCC(=O)O[C@H](COC(=O)CCCCCCCCCCCC)COP(=O)(O)OCCN [PE(35:2)] has a reported collision cross section (N2) of 281.3
